We begin with a simple list: items and their reported IC50.
target-entity: T1, human OT7T175 (metastin receptor) (human, UniProt Q969F8 1-398)
T1 construct: expressed on CHO cells; also called hOT7T175; hOT7T175-expressed CHO cells
T1 sequence (Q969F8 whole entry L364H): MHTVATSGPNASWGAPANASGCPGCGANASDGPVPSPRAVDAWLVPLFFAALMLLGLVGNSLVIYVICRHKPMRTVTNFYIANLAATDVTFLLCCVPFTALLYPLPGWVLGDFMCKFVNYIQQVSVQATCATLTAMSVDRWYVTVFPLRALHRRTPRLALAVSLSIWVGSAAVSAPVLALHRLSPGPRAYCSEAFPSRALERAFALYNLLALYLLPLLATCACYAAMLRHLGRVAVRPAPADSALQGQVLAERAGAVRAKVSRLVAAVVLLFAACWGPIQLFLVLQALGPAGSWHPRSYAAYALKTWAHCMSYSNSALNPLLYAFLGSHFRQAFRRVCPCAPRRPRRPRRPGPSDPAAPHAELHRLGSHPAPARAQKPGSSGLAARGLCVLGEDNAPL
procedure-details: competition with Cy-5 metastin (40-54) on hOT7T175-CHO cells, FMAT
Non-standard residues stand in square brackets, D forms with d. No end group written: not given here. Phe(4-CN) = N#Cc1ccc(C[C@H](N)C(=O)O)cc1; Phe(4-F) = N[C@@H](Cc1ccc(F)cc1)C(=O)O; 2Nal = N[C@@H](Cc1ccc2ccccc2c1)C(=O)O; Arg(Me) = CNC(=N)NCCC[C@H](N)C(=O)O; azaGly = NNC(=O)O
Write it as a number; the unit nM goes unstated.

binder	measurement-units	IC50
{4‑(3-indolyl)butyryl}-NSF[azaGly]L[Arg(Me)]F-NH2 (also called Compound No. 267) [des(1-3)-4-(3-Indolyl)butyryl-[AzaGly7,Arg(Me)9]MS10]	nM	360
DNWNSFGLRF-NH2 (also called Compound No. 75) [[Asp1]MS10]	nM	880
[dY][2Nal]NSF[azaGly]L[Arg(Me)]F-NH2 (also called Compound No. 255) [des(1)-[D-Tyr2,Nal(2)3,AzaGly7,Arg(Me)9]MS10]	nM	33
YNWNSFGLXF (Nar9; C-terminal amide, also called Compound No. 310) [[Nar9]MS10]	nM	310
YNLNSFGLRF-NH2 (also called Compound No. 68) [[Leu3]MS10]	nM	7.7

Q: Fill in: IC50 of YNWNSFGLR[Phe(4-CN)]-NH2 (also called Compound No. 77) [[Phe(4CN)10]MS10] is ___
Ans: 7.4

Q: Fill in: IC50 of YNWNSFGL[Arg(Me)]F-NH2 (also called Compound No. 82) [[Arg(Me)9]MS10] is ___
Ans: 4.1

Q: Fill in: IC50 of [dY]NWNSF[azaGly]L[Arg(Me)][Phe(4-F)]-NH2 (also called Compound No. 318) [[D-Tyr1,AzaGly7,Arg(Me)9,Phe(4F)10]MS10] is ___
Ans: 0.99

Q: Fill in: IC50 of YNWNSFGLRX (Pya(3)10; C-terminal amide, also called Compound No. 60) [[Pya(3)10]MS10] is ___
Ans: 170

Q: Fill in: IC50 of YNSNSFGLRF-NH2 (also called Compound No. 69) [[Ser3]MS10] is ___
Ans: 83

Q: Fill in: IC50 of [dY][dN]FNSF[azaGly]L[Arg(Me)]F-NH2 (also called Compound No. 257) [[D-Tyr1,D-Asn2,Phe3,AzaGly7,Arg(Me)9]MS10] is ___
Ans: 40

Q: Fill in: IC50 of [dY]NVNSF[azaGly]L[Arg(Me)]F-NH2 (N-terminus assumed; SMILES CNC(=N)NCCC[C@H](NC(=O)[C@H](CC(C)C)NC(=O)NNC(=O)[C@H](Cc1ccccc1)NC(=O)[C@H](CO)NC(=O)[C@H](CC(N)=O)NC(=O)[C@@H](NC(=O)[C@H](CC(N)=O)NC(=O)[C@H](N)Cc1ccc(O)cc1)C(C)C)C(=O)N[C@@H](Cc1ccccc1)C(N)=O, also called Compound No. 234) [[D-Tyr1,Val3,AzaGly7,Arg(Me)9]MS10] is ___
Ans: 47
